# Tested on: β-galactosidase in CMV-LacZ C2C12 myotubes
# experimentalProtocol: CMV-LacZ secondary screen in C2C12 myotubes (β-Gal stabilizing assay)
# Type: cell-based, mouse
# conditionLabel: 40 uM; C2C12 CMV-LacZ myotubes; fold relative to DMSO
Listed molecules paired with reported CMV-LACZ in Myotubes, signal relative to DMSO
measurementType: CMV-LACZ in Myotubes, signal relative to DMSO

>  <molecule>
Cc1ccccc1S(=O)(=O)N1C[C@H]2CON(C)[C@H]2C[C@H]1c1cccc(-c2ccccc2)c1 [MLS002694363-01]

>  <obsValue>
0.7460

$$$$
>  <molecule>
CCCCNS(=O)(=O)c1ccc2nc(-c3cccnc3)cc(C(=O)NCCOC)c2c1 [MLS000673766-01]

>  <obsValue>
1.04

$$$$
>  <molecule>
N#Cc1nc(COc2ccccc2)oc1N1CCCC1 [MLS000036988-01]

>  <obsValue>
0.5021

$$$$
>  <molecule>
CCCOc1nc(SCCC)nc2c1cnn2-c1ccccc1 [MLS000737953-01]

>  <obsValue>
0.9096

$$$$
>  <molecule>
Cc1cccc(C)c1NCC(=O)N1CCN(Cc2ccccc2)CC1.Cl [MLS001176153-01]

>  <obsValue>
1.0878

$$$$

---

# Tested on: β-galactosidase in CMV-LacZ C2C12 myotubes
# experimentalProtocol: CMV-LacZ secondary screen in C2C12 myotubes (β-Gal stabilizing assay)
# Type: cell-based, mouse
# conditionLabel: 20 uM; C2C12 CMV-LacZ myotubes; fold relative to DMSO
measurementType: CMV-LACZ in Myotubes, signal relative to DMSO

>  <chemicalString>
O=C(Nc1ccccc1F)c1ccc([N+](=O)[O-])s1

>  <obsValue>
0.689

$$$$
>  <chemicalString>
COc1ccc(CNC(=O)COC(=O)CCc2c[nH]c3ccccc23)cc1

>  <obsValue>
0.8214

$$$$
>  <chemicalString>
CCOc1ccccc1Nc1cc2n(c(=O)n1)CCc1cc(OC)c(OC)cc1-2

>  <obsValue>
1.2800

$$$$
>  <chemicalString>
COc1ccc(CCNC(=O)Cn2nnc(C(=O)Nc3ccc(Br)cc3)c2N)cc1OC

>  <obsValue>
0.9235

$$$$

---

# Test system: α7 integrin (LacZ reporter in α7+/LacZ myotubes)
# experimentalProtocol: Myotube α7 integrin FDG assay (Burkin assay in myotubes, 96-well)
# Assay type: cell-based, mouse
# conditionLabel: myotubes, 10 uM
measurementType: Burkin Assay in Myotubes, α7 integrin LacZ reporter signal relative to DMSO

>  <compound>
CC1(C)Cc2c(c(N3CCOCC3)nc3sc(C(=O)Nc4ccccc4)c(N)c23)CO1

>  <obsValue>
0.629

$$$$
>  <compound>
O=C(N[C@@H](Cc1c[nH]c2ccccc12)C(=O)O)C1CCN(S(=O)(=O)c2cccs2)CC1

>  <obsValue>
0.9913

$$$$
>  <compound>
O=C(O)c1cc(N=Cc2c(O)c3ccccc3oc2=O)ccc1O

>  <obsValue>
1.06

$$$$
>  <compound>
CC(O)CNc1nc2c(c(=O)n(Cc3ccc(Br)cc3)c(=O)n2C)n1C (stereo not shown)

>  <obsValue>
0.9201

$$$$
>  <compound>
CCN(CC)C(=O)c1sc2nc(-c3ccc(OC)cc3)cn2c1C

>  <obsValue>
0.9917

$$$$
>  <compound>
COc1ccc(CCNC(=O)Cn2nnc(C(=O)Nc3ccc(Br)cc3)c2N)cc1OC

>  <obsValue>
0.939

$$$$
>  <compound>
CCOC(=O)c1cc(-c2cccs2)nc2c1c(C)nn2-c1ccccn1

>  <obsValue>
0.9085

$$$$
>  <compound>
Cc1ccc(Cn2nnc3c(=O)[nH]c(C4CCCN(C(=O)c5ccco5)C4)nc32)cc1 (stereo not shown)

>  <obsValue>
0.8772

$$$$
>  <compound>
Cc1cc(OCC(=O)NC(C)C)ccc1Cl

>  <obsValue>
0.8076

$$$$
>  <compound>
OC(c1nc2ccc(F)cc2[nH]1)C(O)c1nc2ccc(F)cc2[nH]1 (stereo not shown)

>  <obsValue>
1.02

$$$$
>  <compound>
Oc1c(Br)cc(Br)cc1CNc1cccc2cccnc12

>  <obsValue>
0.733

$$$$
>  <compound>
Cc1cccc(C)c1NCC(=O)N1CCN(Cc2ccccc2)CC1.Cl

>  <obsValue>
1.106

$$$$
>  <compound>
COc1ccc(N2CCN(CCC3Oc4cc([N+](=O)[O-])ccc4NC3=O)CC2)cc1 (stereo not shown)

>  <obsValue>
0.625

$$$$

---

# Test system: α7 integrin (LacZ reporter in α7LacZ+/− myoblasts)
# experimentalProtocol: qHTS of the LOPAC library and MLSMR (online screen, α7LacZ+/− myoblasts)
# conditionLabel: Mus musculus, Myoblast, 48 h, read-out: Activity at 0.307 uM [%] **
# activation at 0.307 µM per entry
measurementType: activation at 0.307 µM

>  <compound>
CC(=O)Nc1ccc(N(C(=O)c2cnccn2)C(C(=O)NC2CCCCC2)c2ccc(F)cc2)cc1 (stereo not shown) [Compound 44]

>  <obsValue>
-13.5%

$$$$
>  <compound>
Cc1ccccc1C(=O)Nc1scc(-c2ccc(Br)cc2)c1C(=O)O [Compound 4]

>  <obsValue>
9.85%

$$$$
>  <compound>
CCOc1ccc2oc(C(=O)OCC(=O)NC(=O)NC)c(C)c2c1 [Compound 115]

>  <obsValue>
-3.94%

$$$$
>  <compound>
O=C(COC(=O)c1cc2ccccc2oc1=O)Nc1ccc(F)cc1F [Compound 60]

>  <obsValue>
-11%

$$$$
>  <compound>
COc1ccc(Cl)cc1NC(=O)CC(=O)Nc1cc(Cl)ccc1OC [Compound 41]

>  <obsValue>
8.75%

$$$$
>  <compound>
CC(C(=O)Nc1ccc(C#N)cc1)N(C)CC(=O)Nc1cccc(F)c1 (stereo not shown) [Compound 186]

>  <obsValue>
-37.2%

$$$$
>  <compound>
N#Cc1ccc(Sc2nc3ccccc3[nH]2)cc1C#N [Compound 218]

>  <obsValue>
14%

$$$$
>  <compound>
COc1ccc(N2CCN(CCC3Oc4cc([N+](=O)[O-])ccc4NC3=O)CC2)cc1 (stereo not shown) [Compound 194]

>  <obsValue>
-2.43%

$$$$
>  <compound>
CCCCC(C(=O)NC1CCCC1)N(C(=O)c1snc(C(N)=O)c1N)c1ccc(C)cc1 (stereo not shown) [Compound 151]

>  <obsValue>
-26.6%

$$$$
>  <compound>
CCCCNC(=O)CSc1nnc(Cc2ccc(Cl)c(Cl)c2)c(O)n1 [Compound 34]

>  <obsValue>
9.41%

$$$$
>  <compound>
CNc1cc([N+](=O)[O-])ccc1OCc1ccccc1 [Compound 79]

>  <obsValue>
1.52%

$$$$
>  <compound>
Cc1ccc(S(=O)(=O)N2CN(CC3CCCO3)c3nc4ccccc4nc32)c(C)c1 (stereo not shown) [Compound 91]

>  <obsValue>
-19.2%

$$$$
>  <compound>
O=Cc1cn(Cc2ccc(F)cc2Cl)c2ccccc12 [Compound 209]

>  <obsValue>
13%

$$$$
>  <compound>
COc1cc(Cl)cc(CN2CCC(CCC(=O)NC3CC3)CC2)c1OC [Compound 167]

>  <obsValue>
-38.2%

$$$$
>  <compound>
C/N=c1\scc(-c2ccc(OC)cc2)n1/N=C(\C)c1cccnc1 [Compound 118]

>  <obsValue>
-8.12%

$$$$
>  <compound>
N=C(NOC(=O)COc1cc(Cl)c(Cl)cc1Cl)c1ccncc1 [Compound 125]

>  <obsValue>
0%

$$$$
>  <compound>
COc1ccc(-n2c(C)c(C(C)=O)c3cc(OC(C)=O)ccc32)cc1 [Compound 59]

>  <obsValue>
0%

$$$$
>  <compound>
COc1ccc(-c2c[nH]nc2-c2ccc(OC)cc2)cc1 [Compound 106]

>  <obsValue>
-0.495%

$$$$
>  <compound>
CC(=O)Nc1ccc(NC(=O)[C@@H](NC(=O)c2cccc(C)c2)C(C)C)cc1 [Compound 47]

>  <obsValue>
17.2%

$$$$
>  <compound>
COc1cccc(N2C(=O)CC(N3CCc4ccccc4C3)C2=O)c1 (stereo not shown) [Compound 176]

>  <obsValue>
-22.1%

$$$$
>  <compound>
CN(C)/C=N/c1nccc(-c2cccs2)n1 [Compound 121]

>  <obsValue>
6.86%

$$$$
>  <compound>
O=C(NCCCn1ccnc1)/C(=C/c1cccs1)NC(=O)c1ccco1 [Compound 124]

>  <obsValue>
-19.2%

$$$$
>  <compound>
CN(Cc1c(C(=O)N/N=C/c2cccc(F)c2)nnn1-c1nonc1N)c1ccccc1 [Compound 97]

>  <obsValue>
1.91%

$$$$
>  <compound>
O=Cc1cnc(N2CCCCC2)s1 [Compound 191]

>  <obsValue>
-18.1%

$$$$
>  <compound>
CC(OC(=O)c1cc(-c2cccnc2)nc2ccccc12)C(=O)Nc1ccc2ccccc2c1 (stereo not shown) [Compound 1]

>  <obsValue>
0%

$$$$
>  <compound>
NC(=O)c1nsc(C(=O)N(c2ccccc2)C(C(=O)NCc2ccc(F)cc2)c2ccc(O)cc2)c1N (stereo not shown) [Compound 16]

>  <obsValue>
-30.2%

$$$$
>  <compound>
CN(C)S(=O)(=O)c1ccc(C(=O)Nc2nc3ccccc3[nH]2)cc1 [Compound 116]

>  <obsValue>
-9.1%

$$$$
>  <compound>
CC(=O)Nc1ccc(NC(=O)c2cc(=O)c3cc(C)cc(C)c3o2)cc1 [Compound 159]

>  <obsValue>
-4.25%

$$$$
>  <compound>
COc1ccccc1C(=O)NCC(=O)/N=N/c1c(O)n(C(C)C)c2ccccc12 [Compound 139]

>  <obsValue>
15.2%

$$$$
>  <compound>
O=C(O)CCCNC(=O)CCn1nnc2ccccc2c1=O [Compound 174]

>  <obsValue>
-21.7%

$$$$
>  <compound>
COc1ccccc1CNc1cc(C)ccn1 [Compound 31]

>  <obsValue>
-22.9%

$$$$
>  <compound>
COc1cc(NC(=O)C2C3C=CC(C3)C2C(=O)O)ccc1NC(=O)c1ccccc1 (stereo not shown) [Compound 142]

>  <obsValue>
-17.1%

$$$$
>  <compound>
CCOC(=O)/C(C(=O)c1ccccc1)=C(\N)NCCO [Compound 222]

>  <obsValue>
9.44%

$$$$
>  <compound>
COc1cc(/C=C2/C(=N)N3C(SC)=NSC3=NC2=O)ccc1OC(=O)c1ccco1 [Compound 30]

>  <obsValue>
-18.3%

$$$$
